OBSERVATION_TYPE: melting point

- COMPOUND: "COc1ccc(CC(C)NCC(O)c2cccc(F)c2)cc1 (stereo not drawn)"
  melting point: "85 to 89 °C"
- COMPOUND: "CCn1c(-c2ccc3c(c2)OCCO3)cc(=Nc2c(C)cc(C)cc2C)n(C)c1=O"
  melting point: "75 to 82 °C"
- COMPOUND: "OCc1cnc2sc3c(n12)CCCCC3"
  melting point: "145 to 146 °C"
- COMPOUND: "CCCCc1c(C)c2ccc(OCCCCl)cc2[nH]c1=O"
  melting point: "203 °C"
- COMPOUND: "N=C(NC(=O)c1ccccc1)N1CCc2[nH]cnc2C1"
  melting point: "228 °C"

Recorded melting point (compound Cc1nnc(-c2ccnc(Nc3ccccn3)c2)o1 ): 196 to 197 °C

For CC(=O)NCc1cccc(CCCOCCCCCCNCC(O)c2cc(Cl)c(N)c(Cl)c2)c1 (stereo not drawn) the compound record lists melting point as 91 to 94 °C
